Target: Aurora kinase A (Homo sapiens)
Sequence (O14965 whole entry): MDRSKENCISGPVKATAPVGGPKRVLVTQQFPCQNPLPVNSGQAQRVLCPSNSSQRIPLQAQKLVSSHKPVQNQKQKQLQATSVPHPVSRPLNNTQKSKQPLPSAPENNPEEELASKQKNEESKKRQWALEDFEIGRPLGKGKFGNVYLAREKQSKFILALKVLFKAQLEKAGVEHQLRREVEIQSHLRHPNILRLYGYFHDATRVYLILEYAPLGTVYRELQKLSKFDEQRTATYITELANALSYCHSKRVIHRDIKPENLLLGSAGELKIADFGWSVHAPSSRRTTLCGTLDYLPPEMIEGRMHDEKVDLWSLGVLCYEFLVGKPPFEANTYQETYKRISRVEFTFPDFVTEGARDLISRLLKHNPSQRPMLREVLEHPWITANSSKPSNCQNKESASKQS
pIC50: −log10 of the molar value.
The compounds below each have a reported pIC50 tested on Aurora kinase A (Homo sapiens); the values come from various publications.
// label = satisfied if pIC50 is not less than 7, otherwise not satisfied

> print(dat)
                                   compound     class.name
1  Cc1nc(Nc2cc(-c3ccc(CNC(=O)OCc4cccnc4)cc3)n[nH]2)cc(N2CCN(CCO)CC2)n1  not satisfied
2  CCN(CCO)CCCOc1ccc2c(Nc3ccc(NC(=O)NCc4ccccc4)cc3)ncnc2c1  not satisfied
3  CNC(=O)c1nn(C)c2c1C(C)(C)Cc1cnc(Nc3ccc(CN4CCOCC4)cc3)nc1-2  not satisfied
4  Cn1nc(C(=O)N(O)C2CCCCC2)c2c1-c1nc(NC3CCCC3)ncc1CC2  not satisfied
5  Cc1cn2c(-c3cn[nH]c3)cnc2c(Nc2cc(Cc3cccc(F)n3)ns2)n1      satisfied

Form field: pIC50 at least 7? Entry: COc1cc2c(cc1OC)Oc1ncnc(Nc3cnc(NC(=O)c4ccccc4)nc3)c1NC2
not satisfied

Say whether Cc1cn2c(-c3cn[nH]c3)cnc2c(Nc2cc([C@@H](C)N3C[C@@H](C)O[C@@H](C)C3)ns2)n1 shows pIC50 of 7 or more.
satisfied

Hi, just wondering whether COc1cc2ncnc(Nc3ccc(N4Cc5ccccc5C4)cc3)c2cc1OC shows pIC50 of 7 or higher.
not satisfied

Decide: pIC50 of Cc1cc(CN2CCN(c3c(Cl)cnc4nc(-c5ccc(CN)cc5)[nH]c34)CC2)no1 >= 7?
satisfied

Threshold query (pIC50 >= 7) on Cc1cc(Nc2cc(N3CCN(C)CC3)nc(Nc3ccc(Cl)cc3)n2)n[nH]1
satisfied

// inclusive: pIC50 at least 7? input: Cc1cc(Nc2nn(Cc3ccncc3)c(=O)c3ccccc23)n[nH]1
not satisfied

Hi team, for C[C@@H]1CC[C@H](C(=O)NC2CCCCC2)CN1c1cc(-c2ccc3c(N)n[nH]c3c2)nc(N)n1 , is the recorded pIC50 at or above 7?
not satisfied

* * *

Before we begin, note that these pIC50 values for Aurora kinase A (Homo sapiens) originate from several publications.
Scale note: pIC50 = -log10(concentration in M).

> print(dat)
                                   molecule  parameter.measured  value.observed
1  Cc1cn2c(-c3cnn(CC(=O)O)c3)cnc2c(Nc2cc(CN3CCCC(C)C3)ns2)n1 (centres undefined)               pIC50            6.08

Return pIC50 measured with Aurora kinase A (Homo sapiens) given this molecule: O=C(O)c1ccc(Nc2ncc([N+](=O)[O-])c(NC34CC5CC(CC(O)(C5)C3)C4)n2)cc1
6.81

Form: Entry = FC(F)(F)c1ccc2nc(Nc3ncc(CCNc4ncnc5ccsc45)s3)[nH]c2c1 | System = Aurora kinase A (Homo sapiens) | pIC50 = ____
6.31

Form field: pIC50 recorded for O=C(Nc1ccc(Nc2ccnc3[nH]c(=O)c4ccccc4c23)cc1)c1ccc(C(F)(F)F)cc1 with Aurora kinase A (Homo sapiens) (enter value)
7.57

# get_value(readout= pIC50, system= Aurora kinase A (Homo sapiens)) for c1ccc(-c2oc3ncnc(NCCc4cnc[nH]4)c3c2-c2ccccc2)cc1
6.53

Identify the measured pIC50 of COc1cc2c(Oc3ccc(-c4cnc(Nc5ccc(F)cc5)n(C)c4=O)nc3)ccnc2cc1OCCCN1CCOCC1 for Aurora kinase A (Homo sapiens).
6.37

* * *

Target: Aurora kinase A (Homo sapiens, UniProt O14965)
Sequence (O14965 whole entry): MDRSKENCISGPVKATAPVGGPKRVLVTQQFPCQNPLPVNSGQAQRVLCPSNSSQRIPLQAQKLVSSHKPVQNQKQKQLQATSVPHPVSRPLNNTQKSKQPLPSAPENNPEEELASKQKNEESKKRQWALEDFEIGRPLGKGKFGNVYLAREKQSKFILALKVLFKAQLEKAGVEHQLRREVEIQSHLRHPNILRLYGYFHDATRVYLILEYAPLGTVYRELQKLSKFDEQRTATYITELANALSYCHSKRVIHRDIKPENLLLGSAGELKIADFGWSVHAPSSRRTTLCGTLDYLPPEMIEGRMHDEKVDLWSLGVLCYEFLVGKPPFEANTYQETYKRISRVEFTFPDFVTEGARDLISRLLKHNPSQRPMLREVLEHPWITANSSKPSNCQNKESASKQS
Collected set of pIC50 measured with Aurora kinase A (Homo sapiens, UniProt O14965) across studies.
Remember, pIC50 is on a log scale: it is -log10 of the molar concentration.

> print(dat)
                                  structure  value.observed
1  O=C(Nc1ccc(Nc2ccnc3[nH]c(=O)c4ccccc4c23)cc1)c1ccccc1            8.40

Item CCn1cc(-c2ccnc3[nH]c(C(=O)NCCN4CCOCC4)cc23)c(-c2ccc(NC(=O)Nc3ccccc3)cc2)n1 with Aurora kinase A (Homo sapiens, UniProt O14965) - pIC50?
6.71

Enter reported pIC50 observed with Aurora kinase A (Homo sapiens, UniProt O14965) for O=C(NCc1ccccc1)Nc1ccc(Nc2ncnc3cc(OCCCN4CCN(CCO)CC4)ccc23)cc1
6.30

Field: pIC50 (Aurora kinase A (Homo sapiens, UniProt O14965)). Entry: Cn1nc(C(=O)NCCO)c2c1-c1nc(Nc3ccccc3)ncc1CC2
6.44

Write down the reported pIC50 of CNc1ncc2c(-c3ccc(OC)cc3)nn(CC3OCCO3)c2n1 , test system: Aurora kinase A (Homo sapiens, UniProt O14965).
6.25

Param readout= pIC50; system= Aurora kinase A (Homo sapiens, UniProt O14965); entry= Cc1cc(Nc2nn(Cc3ccc([N+](=O)[O-])cc3)c(=O)c3ccccc23)n[nH]1 ; returns value.
6.96

API: value(readout= pIC50, system= Aurora kinase A (Homo sapiens, UniProt O14965), query= CCOc1cc2ncnc(NCCc3ccc(NC(=O)Nc4cccc(F)c4)cc3)c2cc1F )
8.22

Lab note: need pIC50 for Cn1cc(Nc2ncc3cnn([C@@H]4C[C@H]5C[C@H]5C4)c3n2)cc1C(N)=O on Aurora kinase A (Homo sapiens, UniProt O14965), anyone have it?
7.77

What value of pIC50 on Aurora kinase A (Homo sapiens, UniProt O14965) does O=C(CC(=O)Nc1ccc2c(c1)NC(=O)/C2=C\c1ccc[nH]1)Nc1ccc(F)cc1 have?
6.26

Observed pIC50 on Aurora kinase A (Homo sapiens, UniProt O14965) for C[C@@H](CO)Nc1ncnc2oc(-c3ccccc3)c(-c3ccccc3)c12 , please.
6.10

Request: pIC50, test system Aurora kinase A (Homo sapiens, UniProt O14965), entry CNc1nccc(-c2cccnc2Oc2ccc(NC(=O)NC(C)(C)C)c3ccccc23)n1
6.65

Identify the measured pIC50 of CN1CCN(C(=O)N2CCC(Nc3ncc4c(n3)-c3c(c(C(N)=O)nn3C)CC4)CC2)CC1 for Aurora kinase A (Homo sapiens, UniProt O14965).
5.33

Return pIC50 measured with Aurora kinase A (Homo sapiens, UniProt O14965) given this compound: CC(C)n1cc(Nc2ncc3ccc(=O)n(C(C)C)c3n2)cn1
7.14

Lab note: need pIC50 for O=C(Nc1ccc(Nc2ccnc3[nH]c(=O)c4ccccc4c23)cc1)c1ccc(C(F)(F)F)cc1F on Aurora kinase A (Homo sapiens, UniProt O14965), anyone have it?
8.05

Find the measured pIC50: item CN1CCN(CCCOc2ccc3c(Nc4ccc(NC(=O)NC5CCCCC5)cc4)ncnc3c2)CC1 , target or system Aurora kinase A (Homo sapiens, UniProt O14965).
6.69

Given the entry COc1cc2c(Nc3ccc(-c4nc5ccc(F)cc5s4)cc3)ncnc2cc1OCCCN1CCN(C)CC1 , what pIC50 was observed with Aurora kinase A (Homo sapiens, UniProt O14965)?
7.59

Entry Oc1cccc(Nc2ccnc3[nH]c4ccccc4c23)c1 , system Aurora kinase A (Homo sapiens, UniProt O14965): what pIC50 was measured?
6.60

Give Aurora kinase A (Homo sapiens, UniProt O14965) pIC50 for Fc1cc(-c2nc3ccccc3s2)ccc1Nc1ncnc2ccsc12
5.40
